Cited source for all entries: ChEMBL document CHEMBL1201862

assay: Luminescence Cell-Based Dose Confirmation HTS to Identify Activators of 5'UTR Stem-Loop Driven Alpha-Synuclein mRNA Translation in H4 Neuroglioblastoma Cells. [Related pubchem assays: 1829 (Project Summary), 1814 (Primary HTS)]; assay type: functional
Activity calls are given as the source filed them.
Attribute Measured: EC50

// worked examples, EC50 included
Molecule | Attribute Measured | Meas Value
COc1cc(C(C)=O)ccc1OCc1cc(C(=O)N(C)CCC2CCCCO2)no1 (configuration not stated) | EC50 | 0.831 µM (active)
Cc1c(C(=O)Nc2nnc(C(F)(F)F)s2)oc2ccccc12 | EC50 | 3.22 µM (active)
Cc1ccc(NC(S)=NC(=NS(=O)(=O)c2ccccc2)c2ccccc2)cc1 | EC50 | 5.09 µM (active)
COc1ccc2nc(-n3c(C)ccc3C)sc2c1 | EC50 | 38 µM (active)
Fc1cccc(/C=N/NC(=S)Nc2ccccc2Cl)c1 | EC50 | 19.6 µM (active)

Query (molecule): Cc1nn(-c2ccccc2)c(C)c1C(=O)OCC(=O)N(C)C1CCS(=O)(=O)C1 (configuration not stated) ; field requested: EC50
0.313 µM (active)

Give the measured EC50 of CCOC(=O)C1(CCc2ccccc2)CCN(C(=O)CCn2cncn2)CC1 .
28.8 µM (active)

* * *

Biological target: Short transient receptor potential channel 4 (Mus musculus, UniProt Q9QUQ5)
Sequence (Q9QUQ5 whole entry): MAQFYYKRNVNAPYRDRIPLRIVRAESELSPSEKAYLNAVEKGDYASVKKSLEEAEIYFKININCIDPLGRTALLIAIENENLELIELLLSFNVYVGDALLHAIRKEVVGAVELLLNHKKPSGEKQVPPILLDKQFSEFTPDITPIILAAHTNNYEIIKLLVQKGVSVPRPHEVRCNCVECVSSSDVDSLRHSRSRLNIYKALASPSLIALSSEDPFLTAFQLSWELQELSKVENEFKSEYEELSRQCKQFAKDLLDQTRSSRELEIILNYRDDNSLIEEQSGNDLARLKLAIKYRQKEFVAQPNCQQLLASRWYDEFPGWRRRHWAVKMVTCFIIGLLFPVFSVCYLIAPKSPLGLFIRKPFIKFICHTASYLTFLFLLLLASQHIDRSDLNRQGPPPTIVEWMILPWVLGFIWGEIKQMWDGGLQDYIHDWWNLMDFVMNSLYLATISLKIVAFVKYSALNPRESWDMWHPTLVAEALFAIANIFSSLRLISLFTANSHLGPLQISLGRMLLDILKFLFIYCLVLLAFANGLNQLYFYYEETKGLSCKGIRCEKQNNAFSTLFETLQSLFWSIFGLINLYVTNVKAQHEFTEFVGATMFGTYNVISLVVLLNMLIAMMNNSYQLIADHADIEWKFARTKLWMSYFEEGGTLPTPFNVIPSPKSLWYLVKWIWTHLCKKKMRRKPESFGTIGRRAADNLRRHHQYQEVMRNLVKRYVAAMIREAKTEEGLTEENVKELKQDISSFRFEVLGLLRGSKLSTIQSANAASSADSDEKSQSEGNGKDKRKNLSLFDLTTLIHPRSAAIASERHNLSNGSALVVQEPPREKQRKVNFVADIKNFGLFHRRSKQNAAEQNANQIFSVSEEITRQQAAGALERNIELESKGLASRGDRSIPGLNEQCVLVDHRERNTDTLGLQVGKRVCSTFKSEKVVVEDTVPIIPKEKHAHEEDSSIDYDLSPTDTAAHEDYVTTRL
Assay: calcium entry via TRPC4 opening agents – cell-based, HEK293 TRPC4/mu-opioid, Fluo-4 calcium, dose response (AID 434937)
Type: functional
The source made the active and inactive calls.
Attribute Measured: EC50

Would you kindly share the measured EC50 for c1ccc2c(c1)CCN(c1[nH]cnc3c4ccccc4nc1-3)C2 ?
5.96 µM (active)

Fill in the blank: the reported EC50 of Cc1ccc(-n2cc(CNC(C)Cc3cnccn3)c(-c3cccc(C)c3)n2)cc1 (stereo not drawn) is ____.
5.96 µM (active)

Query (molecule): COc1ccc(C(CNC(=O)CCOc2ccccc2)N(C)C)cc1 (stereo not drawn) ; field requested: EC50
1.06 µM (active)
